Entries and their growth
system: E. coli TESEC Mtb Alr; experiment: growth (OD600 after 10 h); higher = more growth (less inhibition); conditions: arabinose 100 nM; compound 0.1 mM; raw OD600 reference: median of DMSO wells 0.413, cell-free background 0.052
Structures can show the parent of a compound that is named as a salt.
Answer with the value's number alone.

O=C1c2cccc3c2[C@H](CCC3)CN1[C@@H]1CN2CCC1CC2 [Palonosetron hydrochloride] :: 0.417
COc1ccc([C@@H]2CC(=O)c3c(O)cc(O[C@@H]4O[C@H](CO[C@@H]5O[C@@H](C)[C@H](O)[C@@H](O)[C@H]5O)[C@@H](O)[C@H](O)[C@H]4O)cc3O2)cc1O :: 0.407

// CN(Cc1cnc2nc(N)nc(N)c2n1)c1ccc(C(=O)N[C@@H](CCC(=O)O)C(=O)O)cc1 [Methotrexate] : growth value = 0.277

// CN(C)CCC=C1c2ccccc2COc2ccccc21 [Doxepin hydrochloride] : growth value = 0.41

// CN(C)CCOC(c1ccccc1)c1ccccc1.Cn1c(=O)c2[nH]c(Cl)nc2n(C)c1=O [Dimenhydrinate] : growth value = 0.402

// CC(COc1ccccc1)N(CCCl)Cc1ccccc1 (centres undefined) [Phenoxybenzamine hydrochloride] : growth value = 0.396

// CCOC(=O)C(C)(C)Oc1ccc(Cl)cc1 [Clofibrate] : growth value = 0.411

// Clc1ccc(C(Cn2ccnc2)OCc2ccsc2Cl)c(Cl)c1 (centres undefined) : growth value = 0.0561

// Cc1nc2ccccn2c(=O)c1CCN1CCC(C(=O)c2ccc(F)cc2)CC1 : growth value = 0.408

// CCC(=O)[C@@]1(C)[C@H](C)C[C@H]2[C@@H]3CCC4=CC(=O)C=C[C@]4(C)[C@H]3[C@@H](O)C[C@@]21C [Rimexolone] : growth value = 0.414

// CN1CCN(C(c2ccccc2)c2ccccc2)CC1 [Cyclizine hydrochloride] : growth value = 0.41

// Fc1ccc([C@@H]2CCNC[C@H]2COc2ccc3c(c2)OCO3)cc1 [Paroxetine Hydrochloride] : growth value = 0.384

// Cc1ccccc1N1C(=O)c2cc(S(N)(=O)=O)c(Cl)cc2NC1C (centres undefined) : growth value = 0.4

// CCOc1ccc2c(c1)C(C)=CC(C)(C)N2 : growth value = 0.408

// C[C@]12CC[C@H]3C(=CCc4cc(O)ccc43)[C@@H]1CCC2=O : growth value = 0.388

// CC[C@H]1OC(=O)C[C@@H](O)[C@H](C)[C@@H](O[C@@H]2O[C@H](C)[C@@H](O[C@H]3C[C@@](C)(O)[C@@H](O)[C@H](C)O3)[C@H](N(C)C)[C@H]2O)[C@@H](CC=O)C[C@@H](C)C(=O)/C=C/C(C)=C/[C@@H]1CO[C@@H]1O[C@H](C)[C@@H](O)[C@@H](OC)[C@H]1OC : growth value = 0.249

// C(=C\c1ccccc1)/CN1CCN(C(c2ccccc2)c2ccccc2)CC1 : growth value = 0.431
